Target of assay: human α1H T-type channels (Homo sapiens)
Construct: expressed in transfected cells; host or cells: HEK 293
Sequence (O95180 whole entry): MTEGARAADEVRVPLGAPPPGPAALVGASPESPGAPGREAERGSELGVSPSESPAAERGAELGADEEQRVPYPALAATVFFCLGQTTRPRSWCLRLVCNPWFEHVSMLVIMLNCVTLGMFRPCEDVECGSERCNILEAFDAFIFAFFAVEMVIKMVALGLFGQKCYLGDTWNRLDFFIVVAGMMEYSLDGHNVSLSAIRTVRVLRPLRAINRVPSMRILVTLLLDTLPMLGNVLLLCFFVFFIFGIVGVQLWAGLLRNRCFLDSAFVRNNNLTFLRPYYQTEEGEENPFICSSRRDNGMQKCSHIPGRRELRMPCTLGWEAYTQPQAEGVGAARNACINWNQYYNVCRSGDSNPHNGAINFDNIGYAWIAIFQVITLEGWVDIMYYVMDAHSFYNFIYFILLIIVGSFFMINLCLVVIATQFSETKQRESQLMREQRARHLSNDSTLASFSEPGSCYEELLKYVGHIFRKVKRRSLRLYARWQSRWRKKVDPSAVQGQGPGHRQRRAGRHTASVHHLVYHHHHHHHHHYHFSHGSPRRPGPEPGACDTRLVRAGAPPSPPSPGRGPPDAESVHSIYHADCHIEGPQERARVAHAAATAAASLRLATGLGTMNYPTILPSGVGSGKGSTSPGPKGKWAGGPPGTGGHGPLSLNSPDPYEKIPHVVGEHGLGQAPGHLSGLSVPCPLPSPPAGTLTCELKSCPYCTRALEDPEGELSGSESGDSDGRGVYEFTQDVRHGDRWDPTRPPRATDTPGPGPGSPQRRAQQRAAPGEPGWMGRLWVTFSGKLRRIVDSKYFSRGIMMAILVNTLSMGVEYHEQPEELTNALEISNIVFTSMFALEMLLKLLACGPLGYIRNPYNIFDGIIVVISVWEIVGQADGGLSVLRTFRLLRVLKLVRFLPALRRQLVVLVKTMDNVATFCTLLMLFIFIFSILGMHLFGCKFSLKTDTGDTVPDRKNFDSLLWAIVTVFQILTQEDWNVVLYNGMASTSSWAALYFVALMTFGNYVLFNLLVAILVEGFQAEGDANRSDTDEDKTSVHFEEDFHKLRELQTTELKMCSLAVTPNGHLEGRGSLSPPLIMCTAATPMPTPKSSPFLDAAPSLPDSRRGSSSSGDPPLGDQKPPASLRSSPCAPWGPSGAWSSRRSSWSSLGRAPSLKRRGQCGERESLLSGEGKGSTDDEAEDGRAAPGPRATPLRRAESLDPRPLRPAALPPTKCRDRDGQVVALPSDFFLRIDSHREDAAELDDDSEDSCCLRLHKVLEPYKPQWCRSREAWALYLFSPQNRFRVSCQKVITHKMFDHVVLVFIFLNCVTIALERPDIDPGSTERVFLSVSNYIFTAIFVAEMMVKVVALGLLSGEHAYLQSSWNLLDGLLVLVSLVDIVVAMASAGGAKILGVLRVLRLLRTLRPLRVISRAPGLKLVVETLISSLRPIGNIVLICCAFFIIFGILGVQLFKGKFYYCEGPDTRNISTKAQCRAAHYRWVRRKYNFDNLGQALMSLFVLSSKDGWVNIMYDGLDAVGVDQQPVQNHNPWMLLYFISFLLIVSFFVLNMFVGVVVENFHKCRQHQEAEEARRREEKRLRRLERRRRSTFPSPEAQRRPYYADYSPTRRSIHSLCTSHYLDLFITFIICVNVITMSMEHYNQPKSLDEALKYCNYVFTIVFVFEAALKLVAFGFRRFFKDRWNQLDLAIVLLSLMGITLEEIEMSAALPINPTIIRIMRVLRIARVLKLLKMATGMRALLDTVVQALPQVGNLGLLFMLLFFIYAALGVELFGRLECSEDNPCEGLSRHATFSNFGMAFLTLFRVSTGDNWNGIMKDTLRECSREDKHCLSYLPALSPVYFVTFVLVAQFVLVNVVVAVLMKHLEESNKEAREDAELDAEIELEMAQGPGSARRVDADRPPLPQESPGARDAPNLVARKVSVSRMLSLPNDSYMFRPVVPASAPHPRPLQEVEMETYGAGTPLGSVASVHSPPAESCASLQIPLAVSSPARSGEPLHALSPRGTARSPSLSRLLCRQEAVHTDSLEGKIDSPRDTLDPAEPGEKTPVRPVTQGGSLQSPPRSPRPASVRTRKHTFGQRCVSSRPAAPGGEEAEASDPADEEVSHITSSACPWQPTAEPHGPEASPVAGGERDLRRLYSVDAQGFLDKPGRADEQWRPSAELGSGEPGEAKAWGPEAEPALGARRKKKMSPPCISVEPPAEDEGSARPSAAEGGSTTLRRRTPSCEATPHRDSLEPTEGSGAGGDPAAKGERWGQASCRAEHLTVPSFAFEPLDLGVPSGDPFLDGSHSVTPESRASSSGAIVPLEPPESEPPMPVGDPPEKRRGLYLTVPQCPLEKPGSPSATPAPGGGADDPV
Assay protocol: T-type calcium channel block, whole cell patch clamp in HEK cells (α1H)
Type: cell-based
Cond: HEK cells, patch clamp, mainly non-inactivated protocol; values above 10 μM shown as 10 μM; read-out: T-type Calcium Channel Block α1H IC50
Method: T-type calcium channel blocking activity was assayed in human embryonic kidney cells, HEK 293, stably transfected with the T-type calcium channel subunits. […] Standard patch-clamp techniques were employed to identify blockers of T-type currents. […] Data were analyzed using Clampfit (Axon Instruments) and SigmaPlot 4.0 (Jandel Scientific). […]
pIC50: −log10 of the molar value.
Value kind: pIC50

Cc1cc(F)cc(C(=O)NCC2CCN(CC(=O)N3CCC[C@@H]3C(F)(F)F)CC2)c1    5.83

1 = O=C(NCC1CCN(CC(=O)N2CCC[C@@H]2C(F)(F)F)CC1)c1cc(F)cc(Cl)c1
2 = CC(C)NC(=O)NC1(CN2CCC(CNC(=O)c3cc(C(F)(F)F)cc(C(F)(F)F)c3)CC2)CCCC1
Hi team, can someone confirm which has the larger pIC50: 1 or 2 ? Thanks. Mark your answer with the label of the selected entry.
1

a = O=C(NCC1CCN(CCN2C(=O)NC3(CCCCC3)C2=O)CC1)c1cc(F)cc(C(F)(F)F)c1
b = NC1(C(=O)NCCN2CCC(CNC(=O)c3cc(F)cc(C(F)(F)F)c3)CC2)CCCCC1
Hi team, can someone confirm which has the larger pIC50: a or b ? Thanks. Mark your answer with the label of the selected entry.
a

P = CC(C)(C)S(=O)(=O)NCCN1CCC(CNC(=O)c2cccc(Cl)c2)CC1
Q = O=C(NCC1CCN(CCNC(=O)C2(C(F)(F)F)CC2)CC1)c1cccc(Br)c1
R = CC(C)(NC(=O)CN1CCC(CNC(=O)c2cc(F)cc(Cl)c2)CC1)C(F)(F)F
Hey, can you sort those compounds up there by pIC50, smallest first? Arrange the labels as the request states and list them.
P, Q, R

A = COc1cc(F)cc(C(=O)NCC2CCN(CCNC(=O)C3(C(F)(F)F)CCC3)CC2)c1
B = CC(C)(C)C(=O)NC1(CN2CCC(CNC(=O)c3cc(C(F)(F)F)cc(C(F)(F)F)c3)CC2)CC1
// task: argmin of pIC50 over [ A , B ] Mark your answer with the label of the selected entry.
B
(B: 6.22, A: 7.05)

---

Target of assay: human α1H T-type channels (Homo sapiens)
Construct: expressed in transfected cells; host or cells: HEK 293
Assay protocol: T-type calcium channel block, whole cell patch clamp in HEK cells (α1H)
Format: cell-based
Cond: HEK cells, patch clamp, mainly non-inactivated protocol; values above 10 μM shown as 10 μM; read-out: T-type Calcium Channel Block α1H IC50
Value kind: IC50 (nM)

CC(C)(F)C(=O)NCCN1CCC(CNC(=O)c2cc(C(F)(F)F)cc(C(F)(F)F)c2)CC1 [Compound 335]    310
O=C(NCC1CCN(CCNC(=O)C2CC2)CC1)c1cc(C(F)(F)F)cc(C(F)(F)F)c1 [Compound 59]    1660
CC1CCCN(C(=O)CN2CCC(CNC(=O)c3cc(C(F)(F)F)cc(C(F)(F)F)c3)CC2)C1 (centres unmarked) [Compound 99]    210

I = O=C(NCC1CCN(CCNS(=O)(=O)C(F)(F)F)CC1)c1cc(Br)cc(Br)c1 [Compound 388]
II = CC1(NC(=O)CN2CCC(CNC(=O)c3ccccc3)CC2)CCC1 [Compound 528]
III = COCC(C)(C)NC(=O)CN1CCC(CNC(=O)c2cc(F)cc(Cl)c2)CC1 [Compound 538]
Hey, can you sort those compounds up there by IC50, smallest first? Arrange the labels as the request states and list them.
III, I, II
(III: 60 nM, I: 160 nM, II: 8540 nM)

From: patent US8569344B2
